Experiment: Clinical pharmacokinetics in phase I trial
Format: in vivo, human
Conditions: human, in vivo; patients, 200 mg m2, oral vs i.v.; read-out: bioavailability of oral formulation

MOLECULE	bioavailability
Cn1nnc2c(C(N)=O)ncn2c1=O [Temozolomide]	~100%

* * *

Assay: Solubility in co-solvents, non-aqueous solvents and solubilising vehicles
Conditions: propylene glycol
QUANTITY_KIND: solubility

1) CN(CO)c1nc(N(C)CO)nc(N(C)CO)n1 ~15 mg/mL

* * *

Experiment: physchem
Details: solubility in a range of solvents
QUANTITY_KIND: solubility

1) O=C1N[C@H]2[C@H](O)[C@H](O)[C@@H](O)[C@H](O)[C@@H]2c2cc3c(c(O)c21)OCO3 < 400 µg/mL

* * *

Experiment: physchem
Settings: aqueous solubilisation with complexing agent

COMPOUND	UNITS	solubility
O=C1N[C@H]2[C@H](O)[C@H](O)[C@@H](O)[C@H](O)[C@@H]2c2cc3c(c(O)c21)OCO3 [Pancratistatin]	µg/mL	1000

* * *

Test: Solubility in co-solvents, non-aqueous solvents and solubilising vehicles
Conditions: 95% ethanol
QUANTITY_KIND: solubility

1. CN(CO)c1nc(N(C)CO)nc(N(C)CO)n1 ~45 mg/mL

* * *

Test: Solubility in co-solvents, non-aqueous solvents and solubilising vehicles
Details: DMA
From the text: Brsh Jowbnl d Cancer ( ) 72, 210-218 ? […] Figwe 3 Chemical stnruu of disulphonated aluminium phthalocyamne.
QUANTITY_KIND: solubility

1) CN(CO)c1nc(N(C)CO)nc(N(C)CO)n1 ~375 mg/mL

* * *

Assay: Solution stability / decomposition studies
Settings: buffer, pH 10
QUANTITY_KIND: half-life

1) CN(CO)c1nc(N(C)CO)nc(N(C)CO)n1 > 30 h
